Target: Recombinant human HDAC6 (Homo sapiens, UniProt Q9UBN7)
Construct: full length, MW=159 kDa; GST (N); host or cells: Sf9 insect cells (baculovirus)
Sequence (Q9UBN7 1-1215): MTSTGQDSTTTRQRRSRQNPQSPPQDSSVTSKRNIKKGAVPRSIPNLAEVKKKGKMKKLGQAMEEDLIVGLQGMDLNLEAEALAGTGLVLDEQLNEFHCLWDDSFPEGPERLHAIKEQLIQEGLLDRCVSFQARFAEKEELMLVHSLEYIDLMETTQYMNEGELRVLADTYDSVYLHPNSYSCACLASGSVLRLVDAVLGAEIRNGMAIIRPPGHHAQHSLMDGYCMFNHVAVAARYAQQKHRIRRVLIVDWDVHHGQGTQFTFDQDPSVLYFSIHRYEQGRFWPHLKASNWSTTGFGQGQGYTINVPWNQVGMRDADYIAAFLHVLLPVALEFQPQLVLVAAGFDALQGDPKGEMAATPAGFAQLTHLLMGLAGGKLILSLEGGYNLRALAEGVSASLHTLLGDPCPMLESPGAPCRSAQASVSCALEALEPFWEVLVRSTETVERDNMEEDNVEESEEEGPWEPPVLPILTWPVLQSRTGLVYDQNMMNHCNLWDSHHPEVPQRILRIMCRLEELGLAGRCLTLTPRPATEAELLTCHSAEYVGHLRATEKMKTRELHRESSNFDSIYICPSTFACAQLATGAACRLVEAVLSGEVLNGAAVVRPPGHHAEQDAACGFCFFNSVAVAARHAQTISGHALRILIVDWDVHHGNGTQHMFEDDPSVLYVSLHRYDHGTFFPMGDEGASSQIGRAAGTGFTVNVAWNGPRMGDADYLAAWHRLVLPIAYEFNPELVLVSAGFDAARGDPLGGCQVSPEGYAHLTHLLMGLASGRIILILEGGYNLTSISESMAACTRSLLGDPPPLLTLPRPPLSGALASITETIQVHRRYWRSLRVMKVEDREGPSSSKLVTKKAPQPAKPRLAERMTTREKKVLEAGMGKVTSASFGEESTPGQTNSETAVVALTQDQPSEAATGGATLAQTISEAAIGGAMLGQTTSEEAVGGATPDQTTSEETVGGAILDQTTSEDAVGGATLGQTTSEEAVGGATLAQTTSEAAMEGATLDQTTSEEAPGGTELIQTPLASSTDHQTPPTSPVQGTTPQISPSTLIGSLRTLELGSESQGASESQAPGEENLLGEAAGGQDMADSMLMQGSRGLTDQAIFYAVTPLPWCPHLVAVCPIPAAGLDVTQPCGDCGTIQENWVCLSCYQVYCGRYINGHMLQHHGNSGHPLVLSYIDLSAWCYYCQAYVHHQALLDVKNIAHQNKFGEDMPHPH
Assay: HDAC6 biochemical assay, AMC-labeled peptide substrate
Details: HDAC6; read-out: HDAC Isoform IC50 (nM) 6
# IC50 listing for each entry below
property: IC50

• FC(F)(F)c1nc(-c2ccc(CN(c3cnccn3)c3nccc4cnccc34)s2)no1 [Example AK] = ≤ 1000 nM
• Cc1nccnc1N(Cc1ccc(-c2noc(C(F)(F)F)n2)s1)c1cnccn1 [Example BE] = ≤ 500 nM
• CC(F)(F)c1cnnc(N(Cc2ccc(-c3noc(C(F)(F)F)n3)s2)c2cnccn2)c1 [Example GU] = ≤ 500 nM
• FC(F)(F)c1nc(-c2ccc(CN(c3cnccn3)c3nccc4ncccc34)s2)no1 [Example AJ] = ≤ 10000 nM
• FC(F)(F)c1ccc(N(Cc2ccc(-c3noc(C(F)(F)F)n3)s2)c2cnccn2)nc1 [Example AB] = ≤ 10000 nM
• Cc1cc(N(Cc2ccc(-c3noc(C(F)(F)F)n3)s2)c2cnccn2)ncn1 [Example CG] = ≤ 1000 nM
• COc1nccnc1N(Cc1ccc(-c2noc(C(F)(F)F)n2)s1)c1cnccn1 [Example BF] = ≤ 10000 nM
• COC1(C(F)(F)F)CN(C(=O)c2cnnc(N(Cc3ccc(-c4noc(C(F)(F)F)n4)s3)c3cnccn3)c2)C1 [Example GL] = ≤ 500 nM
• FC(F)(F)c1nc(-c2ccc(CN(c3cnccn3)c3ccc4nccnc4n3)s2)no1 [Example Z] = ≤ 1000 nM
• FC(F)(F)c1nc(-c2ccc(CN(c3cnccn3)c3cc(C4CC4)ccn3)s2)no1 [Example AH] = ≤ 10000 nM
• FC(F)(F)c1nc(-c2ccc(CN(c3cnccn3)c3cnc4[nH]ccc4n3)s2)no1 [Example BN] = ≤ 1000 nM

Sourced from patent US20210038607A1
